Listed next: entries and their corresponding pIC50.
test: Antagonist activity at lasB in Pseudomonas aeruginosa harboring lasB-gfp gene assessed as inhibition of […]-induced quorum sensing by green fluorescence protein reporter assay
pIC50: −log10 of the molar value.
ATTRIBUTE MEASURED: pIC50

> print(dat)
                              line.notation  attribute.measured  obs.value
1        O=C(Cn1cc(C2CC2)nn1)N[C@H]1CCOC1=O               pIC50       3.30
2      O=C(Cn1cc(C2CCCC2)nn1)N[C@H]1CCOC1=O               pIC50       3.21
3     O=C(Cn1cc(-c2ccsc2)nn1)N[C@H]1CCOC1=O               pIC50       3.24
4       CCCCCCc1cn(CC(=O)N[C@H]2CCOC2=O)nn1               pIC50       3.37
5     O=C(Cn1cc(C2CCCCC2)nn1)N[C@H]1CCOC1=O               pIC50       3.05
6  [N-]=[N+]=Nc1ccc(C(=O)N[C@H]2CCOC2=O)cc1               pIC50       2.96
7          CCCc1cn(CC(=O)N[C@H]2CCOC2=O)nn1               pIC50       3.17
8  O=Cc1cccc(-n2cc(CCC(=O)N[C@H]3CCOC3=O)nn2)c1               pIC50       3.42
9   O=C(Cn1cc(CSc2ccccc2)nn1)N[C@H]1CCOC1=O               pIC50       3.16
